Test system: plasma cGMP
experimentDescription: In vivo monkey studies, plasma cGMP ELISA
Set-up: species or system male cynomolgus monkeys
conditionsUsed: dose 100 nmol/kg; 1 h postdose; monkey plasma
Numbered stars: 1 amine (or outer) side, 2 acyl side, 3 side chain; on linkers, the order of the positions; unused ones are H or OH. Bridge positions count the residues as written; N and C are the ends. Square brackets hold non-standard residues; d marks the D form. * marks the point of attachment. PEG24 = NCCOCCOCCOCCOCCOCCOCCOCCOCCOCCOCCOCCOCCOCCOCCOCCOCCOCCOCCOCCOCCOCCOCCOCCOCCC(=O)O; C20 diacid = O=C(O)CCCCCCCCCCCCCCCCCCC(=O)*; γGlu = O=C(O)[C@H](CCC(=O)[*:2])N[*:1]; 4Pal = N[C@@H](Cc1ccncc1)C(=O)O; CH2 = C([*:1])[*:2]; βAla = NCCC(=O)O
readoutLabel: Net cGMP (nM) Change from Baseline 1 h

substance	targetOrTestSystem	resultUnit	measValue
(BFAEN2-βAla)-EKEKEKG-PEG24-EK-βAla-RSS[CFGKRIDRIGHQSGLGC]PSFRHGSPSSGAPPPS-NH2 (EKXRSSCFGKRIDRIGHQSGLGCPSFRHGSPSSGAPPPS; BFAEN2-βAla, PEG24, C-terminal amide; MOD_RES 1 N-terminal modified with (BFAEN2-beta-Ala)-EKEKEKG-PEG24-; wherein BFAEN2 is Bifurcated Fatty Acid Enantiomer 2; SITE 3 X at position 3 is beta-Alanine; MOD_RES 39 Amidation; DISULFID 7..23 Intrachain thioacetal bond) [Example 144]	plasma cGMP	nM	36.51
{C20 diacid-γGlu}-EKEKEKG[PEG24]EK[βAla]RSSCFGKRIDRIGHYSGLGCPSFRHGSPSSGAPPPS-NH2 (linker 15-31 via CH2) [Example 106]	plasma cGMP	nM	24.83
{C20 diacid-γGlu}-EKEKEKGS[4Pal]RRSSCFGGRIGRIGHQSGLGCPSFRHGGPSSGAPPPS-NH2 (disulfide 14-30) [Example 29]	plasma cGMP	nM	10.14
{C20 diacid-γGlu}-EKEKEKG[PEG24]S[4Pal]RRSSCFGGRIDRIGHQSGLGCPSFRHGGPSSGAPPPS-NH2 (linker 15-31 via CH2) [Example 61]	plasma cGMP	nM	28.35

Values from patent US20240174727A1
